- Test system: synthesis of 5-HETE and LTB4 by rat glycogen-elicited polymorphonuclear leukocytes
- measurement_description: inhibition of the synthesis of 5-HETE and LTB4 by rat glycogen-elicited polymorphonuclear leukocytes
- Format: cell-based, rat (female Wistar)
- condition_notes: Leukocyte; [14C]5-HETE synthesis; rat PMN; A23187 10 μM; 10 min preincubation; read-out: 50% Inhibitory Concentration (IC50), 5-HETE
reported_endpoint: IC50 (µM)

compound | measured
NC1=NN(c2cccc(C(F)(F)F)c2)CC1 [BW755C, reference compound] | 43

* * *

- Test system: synthesis of 5-HETE and LTB4 by rat glycogen-elicited polymorphonuclear leukocytes
- measurement_description: inhibition of the synthesis of 5-HETE and LTB4 by rat glycogen-elicited polymorphonuclear leukocytes
- Format: cell-based, rat (female Wistar)
- condition_notes: Leukocyte; [14C]LTB4 synthesis; rat PMN; A23187 10 μM; 10 min preincubation; read-out: 50% Inhibitory Concentration (IC50), LTB4
reported_endpoint: IC50

molecule | reported_endpoint | measured
NC1=NN(c2cccc(C(F)(F)F)c2)CC1 [BW755C, reference compound] | IC50 | 30 µM
